B1: HDV Ribozyme (parent)
chain: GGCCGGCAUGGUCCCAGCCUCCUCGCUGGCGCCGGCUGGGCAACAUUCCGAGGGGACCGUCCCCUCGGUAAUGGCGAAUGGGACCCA

# Variants of: B1
# Experimental Protocol: self-cleavage, relative activity (ratio to wild type); higher = more cleavage; co-transcriptional
Observation Type: self-cleavage

| Variant Notation | Numeric Result |
| --- | --- |
| G1A G76A | 0.462 |
| G29C G73U | 0.0583 |
| G6U U12A | 0 |
| C62U C63A | 0.927 |
